Target: human FXR (Homo sapiens)
Construct: expressed in transfected cells
Assay: FXR reporter assay (cellular FXR activities)
Format: cell-based
Conditions: read-out: Emax (%) (GW4064 Emax = 100%)
REPORTED ENDPOINT: Emax (%)

| COMPOUND | TARGET OR TEST SYSTEM | UNITS | MEASUREMENT QUALIFIER | OBS VALUE |
| --- | --- | --- | --- | --- |
| CN(C)c1cc(C(=O)O)ccc1C#Cc1ccc(OCc2c(-c3c(Cl)cccc3Cl)noc2C2CC2)cc1Cl [Compound I-22] | human FXR (Homo sapiens) | % | = | 93 |
| CCCCc1nc2cc(C#Cc3ccc(OCc4c(-c5c(Cl)cccc5Cl)noc4C4CC4)cc3Cl)cc(C(=O)O)c2o1 [Compound I-111] | human FXR (Homo sapiens) | % | = | 98 |
| O=C(O)c1cc(C#Cc2ccc(OCc3c(-c4c(Cl)cccc4Cl)noc3C3CC3)cc2Cl)cc2c1OCC2 [Compound I-100] | human FXR (Homo sapiens) | % | > | 100 |
| CCNCc1cc(C#Cc2ccc(OCc3c(-c4c(Cl)cccc4Cl)noc3C3CC3)cc2Cl)cc(C(=O)O)c1 [Compound I-45] | human FXR (Homo sapiens) | % | = | 88 |
| CN(C)Cc1cc(C#Cc2ccc(OCc3c(-c4c(Cl)cccc4Cl)noc3C3CC3)cc2Cl)cc(C(=O)O)c1 [Compound I-49] | human FXR (Homo sapiens) | % | > | 100 |
| O=C(O)c1cc(C#Cc2ccc(OCc3c(-c4c(Cl)cccc4Cl)noc3C3CC3)cc2Cl)cc(N2CCCC2)c1 [Compound I-56] | human FXR (Homo sapiens) | % | = | 96 |
| NS(=O)(=O)Nc1cccc(C#Cc2ccc(OCc3c(-c4c(Cl)cccc4Cl)noc3C3CC3)cc2Cl)c1 [Compound I-14] | human FXR (Homo sapiens) | % | = | 96 |

* * *

Documented EC50 across a set of compounds
Biological target: UniProtKB Q96RI1
Sequence (Q96RI1 1-486): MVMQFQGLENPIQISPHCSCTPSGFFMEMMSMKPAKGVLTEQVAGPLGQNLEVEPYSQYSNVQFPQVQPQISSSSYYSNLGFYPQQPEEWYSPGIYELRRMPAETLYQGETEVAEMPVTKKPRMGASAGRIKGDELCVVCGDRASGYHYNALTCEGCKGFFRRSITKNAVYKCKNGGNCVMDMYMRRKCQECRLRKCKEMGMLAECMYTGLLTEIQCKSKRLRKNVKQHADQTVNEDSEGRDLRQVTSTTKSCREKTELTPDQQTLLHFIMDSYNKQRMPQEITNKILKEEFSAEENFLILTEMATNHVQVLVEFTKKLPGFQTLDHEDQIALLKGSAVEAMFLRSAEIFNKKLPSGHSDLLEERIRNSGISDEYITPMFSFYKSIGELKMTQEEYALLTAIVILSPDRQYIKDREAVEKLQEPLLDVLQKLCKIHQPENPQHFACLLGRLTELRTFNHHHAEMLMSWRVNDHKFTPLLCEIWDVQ
Assay: FXR reporter assay (cellular FXR activities)
Conditions: FXR reporter cells, 24 hours incubation, luciferase; read-out: Reporter Cell EC50

| MOL | EC50 |
| --- | --- |
| O=C(O)c1cccc(C#Cc2ccc(OCc3c(-c4c(Cl)cccc4Cl)noc3C3CC3)cc2Cl)c1F | 60 to 200 nM |
| O=C(O)c1cccc(C#Cc2c(F)cc(OCc3c(-c4c(Cl)cccc4Cl)noc3C3CC3)cc2Cl)c1 | 60 to 200 nM |
| O=C(O)c1cc(C#Cc2ccc(OCc3c(-c4c(Cl)cccc4Cl)noc3C3CC3)cc2Cl)cc2nccnc12 | 20 to 60 nM |
| O=C(O)c1ccc(C#Cc2ccc(OCc3c(-c4c(Cl)cccc4Cl)noc3C3CC3)cc2Cl)cc1 | 60 to 200 nM |
| O=C(O)c1cc(C#Cc2ccc(OCc3c(-c4c(Cl)cccc4Cl)noc3C3CC3)cc2Cl)cc(N2CCCC2)c1 | ≤ 20 nM |
| O=C(O)c1cc(C#Cc2ccc(OCc3c(-c4c(Cl)cccc4Cl)noc3C3CC3)cc2Cl)cc(C(=O)O)c1 | 200 to 1000 nM |
| CN(C)Cc1cc(C#Cc2ccc(OCc3c(-c4c(Cl)cccc4Cl)noc3C3CC3)cc2Cl)cc(C(=O)O)c1 | 20 to 60 nM |

* * *

Biological target: human FXR (Homo sapiens, UniProt Q96RI1)
Sequence (Q96RI1 1-486): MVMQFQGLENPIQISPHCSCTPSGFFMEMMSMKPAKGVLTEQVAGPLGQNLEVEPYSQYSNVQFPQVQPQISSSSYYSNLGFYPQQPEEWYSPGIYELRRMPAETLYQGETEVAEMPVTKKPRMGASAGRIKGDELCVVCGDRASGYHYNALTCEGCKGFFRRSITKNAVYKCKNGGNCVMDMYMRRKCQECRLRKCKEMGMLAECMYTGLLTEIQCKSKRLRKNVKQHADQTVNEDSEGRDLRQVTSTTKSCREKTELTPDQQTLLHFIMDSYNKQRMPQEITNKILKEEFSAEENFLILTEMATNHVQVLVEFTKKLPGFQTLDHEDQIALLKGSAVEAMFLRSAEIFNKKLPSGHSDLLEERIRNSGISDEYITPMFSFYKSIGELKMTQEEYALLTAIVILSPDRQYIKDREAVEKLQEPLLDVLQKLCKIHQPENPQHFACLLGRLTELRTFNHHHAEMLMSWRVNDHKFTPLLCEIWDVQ
Test: FXR reporter assay (cellular FXR activities)
Conditions: FXR reporter cells, 24 hours incubation, luciferase; read-out: Reporter Cell EC50
Structures can show the parent of a compound that is named as a salt.
Documented EC50 across a set of compounds

| COMPOUND | EC50 |
| --- | --- |
| O=C(O)c1cc(C#Cc2ccc(OCc3c(-c4c(Cl)cccc4Cl)noc3C3CC3)cc2Cl)cc(C(F)(F)F)c1 | 20 to 60 nM |
| O=C(O)c1cccc(C#Cc2ccc(OCc3c(-c4c(Cl)cccc4Cl)noc3C3CC3)c(Cl)c2Cl)c1 | 200 to 1000 nM |
| O=C(O)c1cc(C#Cc2ccc(OCc3c(-c4c(Cl)cccc4Cl)noc3C3CC3)cc2Cl)c2cc[nH]c2c1 | ≤ 20 nM |
| CC(C)c1nc2cc(C#Cc3ccc(OCc4c(-c5c(Cl)cccc5Cl)noc4C4CC4)cc3Cl)cc(C(=O)O)c2o1 | 20 to 60 nM |
| CCCCc1nc2cc(C#Cc3ccc(OCc4c(-c5c(Cl)cccc5Cl)noc4C4CC4)cc3Cl)cc(C(=O)O)c2o1 | 20 to 60 nM |
| O=C(O)c1cc(F)cc(C#Cc2ccc(OCc3c(-c4c(Cl)cccc4Cl)noc3C3CC3)cc2Cl)c1 | 20 to 60 nM |
| O=C(O)c1cc(C#Cc2ccc(OCc3c(-c4c(Cl)cccc4Cl)noc3C3CC3)cc2Cl)cc(NC2CCNCC2)c1 [Compound I-58, hydrochloride] | > 1000 nM |

* * *

Assay: Mouse pharmacokinetics
Assay type: in vivo
Set-up: concentration or dose not given beside the values
Settings: mouse; Balb/c male mice; blood samples 15 to 1140 min; LC-MS/MS; read-out: AUC
Documented AUC across a set of molecules

| MOL | AUC |
| --- | --- |
| O=C(O)c1cc(C#Cc2ccc(OCc3c(-c4c(Cl)cccc4Cl)noc3C3CC3)cc2Cl)c2cn[nH]c2c1 | 0.271 µg·h/mL |
| O=C(O)c1cccc(C#Cc2ccc(OCc3c(-c4c(Cl)cccc4Cl)noc3C3CC3)cc2C(F)(F)F)c1 | 0.76 µg·h/mL |
| O=C(O)c1cc(C#Cc2ccc(OCc3c(-c4c(Cl)cccc4Cl)noc3C3CC3)cc2Cl)c2cc[nH]c2c1 | 0.544 µg·h/mL |
| O=C(O)c1ccc(Cl)c(C#Cc2ccc(OCc3c(-c4c(Cl)cccc4Cl)noc3C3CC3)cc2Cl)c1 | 1.78 µg·h/mL |
| O=C(O)c1cc(F)cc(C#Cc2ccc(OCc3c(-c4c(Cl)cccc4Cl)noc3C3CC3)cc2Cl)c1 | 0.68 µg·h/mL |
| CN(C)c1cc(C#Cc2ccc(OCc3c(-c4c(Cl)cccc4Cl)noc3C3CC3)cc2Cl)cc(C(=O)O)c1 | 6.14 µg·h/mL |
| CC(C)c1nc2cc(C#Cc3ccc(OCc4c(-c5c(Cl)cccc5Cl)noc4C4CC4)cc3Cl)cc(C(=O)O)c2o1 | 2.25 µg·h/mL |
| Nc1cc(C#Cc2ccc(OCc3c(-c4c(Cl)cccc4Cl)noc3C3CC3)cc2Cl)cc(C(=O)O)c1 | 0.722 µg·h/mL |
| O=C(O)c1ccc(F)c(C#Cc2ccc(OCc3c(-c4c(Cl)cccc4Cl)noc3C3CC3)cc2Cl)c1 | 1 µg·h/mL |
| CC(C)Nc1cc(C#Cc2ccc(OCc3c(-c4c(Cl)cccc4Cl)noc3C3CC3)cc2Cl)cc(C(=O)O)c1 | 0.934 µg·h/mL |
| O=C(O)c1cc(C#Cc2ccc(OCc3c(-c4c(Cl)cccc4Cl)noc3C3CC3)cc2Cl)cc2[nH]ncc12 | 0.205 µg·h/mL |
| O=C(O)c1cccc(C#Cc2ccc(OCc3c(-c4c(Cl)cccc4Cl)noc3C3CC3)cc2)c1 | 0.277 µg·h/mL |
| Cc1cc(C#Cc2ccc(OCc3c(-c4c(Cl)cccc4Cl)noc3C3CC3)cc2Cl)cc(C(=O)O)c1 | 11.9 µg·h/mL |
| O=C(O)c1cccc(C#Cc2ccc(OCc3c(-c4c(Cl)cccc4Cl)noc3C3CC3)cc2Cl)c1 | 0.521 µg·h/mL |
